FYI, the data here is from patent US20130129746A1.

Measured Ka of individual entries
Target or test system: T1, Rat Serum Albumin (rat, UniProt P02770 25-608)
T1 construct: mature; purified protein on CM5 chips for BIAcore; also called RSA; rat SA
T1 sequence (P02770 25-608): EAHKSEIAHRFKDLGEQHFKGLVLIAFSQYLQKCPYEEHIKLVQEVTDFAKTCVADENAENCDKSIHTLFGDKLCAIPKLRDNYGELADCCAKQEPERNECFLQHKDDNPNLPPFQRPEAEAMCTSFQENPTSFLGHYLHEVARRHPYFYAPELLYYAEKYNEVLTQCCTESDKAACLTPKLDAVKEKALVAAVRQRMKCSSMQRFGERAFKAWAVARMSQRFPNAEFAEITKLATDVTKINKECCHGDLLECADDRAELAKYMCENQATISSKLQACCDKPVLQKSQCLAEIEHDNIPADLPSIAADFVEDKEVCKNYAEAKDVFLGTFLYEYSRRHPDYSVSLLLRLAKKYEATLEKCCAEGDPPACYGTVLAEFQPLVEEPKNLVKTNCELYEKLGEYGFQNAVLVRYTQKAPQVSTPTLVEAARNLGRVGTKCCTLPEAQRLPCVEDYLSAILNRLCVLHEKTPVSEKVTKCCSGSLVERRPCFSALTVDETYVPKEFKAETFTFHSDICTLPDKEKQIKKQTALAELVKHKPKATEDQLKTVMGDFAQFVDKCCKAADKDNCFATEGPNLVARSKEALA
Assay: BIAcore SPR
Give a bare numeral; the unit M⁻¹ is implied.

Some binders with recorded Ka:
DOM7h-11-88 (other, Vk dAb; also called DOM7h-11-67 W108R) VL: DIQMTQSPSSLSASVGDRVTITCRASRPIGTMLSWYQQKPGKAPKLLILAFSRLQSGVPSRFSGSGSGTDFTLTISSLQPEDFATYYCAQAGTHHTTFGQGTKVENKR	5.96e+07
DOM7h-11-86 (other, Vk dAb; also called DOM7h-11-65 W108R/N106I) VL: DIQMTQSPSSLSASVGDRVTITCRASRPIGTMLSWYQQKPGKAPKLLILAFSRLQSGVPSRFSGSGSGTDFTLTISSLQPEDVATYYCAQAGTHPTTFGQGTKVEIKR	2.8e+07
DOM7h-11-90 (other, Vk dAb; also called DOM7h-11-57 W108R/N106I) VL: DIQMTQSPSSLSASVGDRVTITCRASRPIGTMLSWYQQKPGKAPKLLILAFSRLQSGVPSRFSGSGSGTDFTLTISNLQPEDFATYYCAQAGTHPTTFGQGTKVEIKR	1.91e+07

Ka for DOM7h-11-87 (other, Vk dAb; also called DOM7h-11-67 W108R/N106I) VL: DIQMTQSPSSLSASVGDRVTITCRASRPIGTMLSWYQQKPGKAPKLLILAFSRLQSGVPSRFSGSGSGTDFTLTISSLQPEDFATYYCAQAGTHHTTFGQGTKVEIKR ?
5.77e+07
